System Name: p-p38 MAPK (Mus musculus)
Construct: endogenous in cells; host or cells: Raw264.7
Sequence (P47811 whole entry): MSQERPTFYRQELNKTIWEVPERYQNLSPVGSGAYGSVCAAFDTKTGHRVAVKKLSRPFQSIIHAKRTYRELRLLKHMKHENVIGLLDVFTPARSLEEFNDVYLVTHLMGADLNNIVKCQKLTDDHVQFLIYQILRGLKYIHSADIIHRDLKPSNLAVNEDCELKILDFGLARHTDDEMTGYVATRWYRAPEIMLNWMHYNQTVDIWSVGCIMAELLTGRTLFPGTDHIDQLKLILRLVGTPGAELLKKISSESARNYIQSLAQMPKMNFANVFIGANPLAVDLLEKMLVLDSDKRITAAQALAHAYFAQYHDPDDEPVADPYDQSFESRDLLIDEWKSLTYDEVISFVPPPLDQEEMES
Test Protocol: Evaluation of p38 MAPK protein inhibitory ability in cells (p-p38 immunoblot)
Assay type: cell-based
Study Conditions: RAW264.7, Raw264.7 cells, 10 μM compound, 24 hours
Catalogue of inhibition at 10 µM values
Observation Type: inhibition at 10 µM (%)

• Cc1ccc(C(=O)NC2CC2)cc1-c1ccc(C(=O)C2CCCCC2)cc1 = 87.6
• Cc1ccc(C(=O)NC2CC2)cc1-c1ccc(C(=O)C2CCCC2)cc1 = 76.2
• Cc1ccc(C(=O)NC2CC2)cc1-c1ccc(C(=O)C2CC2)cc1 = 20.9
• Cc1ccc(C(=O)NC2CC2)cc1-c1ccc(C(=O)C2CCNC2)cc1 (centres unmarked) = 88.6
• Cc1ccc(C(=O)NC2CC2)cc1-c1ccc(C(=O)C2CCCCCC2)cc1 = 83
